System: HCI-027 (organoid from a triple-negative breast cancer xenograft)
assay.overview: CTG-3D luminescence at 96 h relative to day-0 seeding control (ratio to day 0); higher = more growth / less cytotoxicity; PDxO 3D drug screen (set 2), 96 h, CTG-3D normalised to day-0 seeding control.
measurement.parameters: 0.1 µM; days in culture: 145
property.name: CTG-3D luminescence at 96 h
Returns: the value as a bare number; no unit string appended.

Fill blank: measured CTG-3D luminescence at 96 h of the compound Nc1cc(C(F)(F)F)c(-c2cc(N3CCOCC3)nc(N3CCOCC3)n2)cn1 is ____. 1.43

---

Test system: HCI-002 (organoid from a triple-negative breast cancer xenograft)
assay.overview: CTG-3D luminescence at 96 h relative to day-0 seeding control (ratio to day 0); higher = more growth / less cytotoxicity; PDxO 3D drug screen, 96 h, CTG-3D normalised to day-0 seeding control.
measurement.parameters: 625 fM; days in culture: 191
Parameter CTG-3D luminescence at 96 h: see the listing below.
Returns: the value as a bare number; no unit string appended.

CS(=O)(=O)c1ccc(C(=O)Nc2ccc(Cl)c(-c3ccccn3)c2)c(Cl)c1 [vismodegib]: 3.41
Cc1cc(Nc2ncnc3ccc(NC4=NC(C)(C)CO4)cc23)ccc1Oc1ccn2ncnc2c1 [tucatinib]: 2.73

As a next step, examine the compound that follows.
Given the entry C=CCn1c(=O)c2cnc(Nc3ccc(N4CCN(C)CC4)cc3)nc2n1-c1cccc(C(C)(C)O)n1 [adavosertib] , what CTG-3D luminescence at 96 h was observed with HCI-002? 2.47
